experiment: in vivo; details: male, Dutch Belted, rabbit, 0.025 mg/eye, Calculated Concentration in vitreous humor
Where a SMILES comes first, the peptide text is derived from it.
quantity-measured: level at 240 h

Query :: Name the reported level at 240 h value associated with the molecule CC[C@H](C)[C@H](NC(=O)[C@H](Cc1ccc(O)cc1)NC(=O)[C@H](CC(N)=O)NC(=O)[C@@H](NC(=O)[C@H](C)NC(=O)CNC(=O)[C@H](CC(C)C)NC(=O)[C@H](Cc1ccc(O)cc1)NC(=O)[C@@H](NC(=O)[C@H](Cc1cnc[nH]1)NC(=O)[C@@H](N)Cc1cnc[nH]1)[C@@H](C)CC)C(C)C)C(=O)N[C@@H](Cc1ccc(O)cc1)C(N)=O [Compound 1] (H-HHIYLGAVNYIY-NH2)
Result :: 18000 ng/mL

----------
experiment: in vivo; details: male, Dutch Belted, rabbit, 0.1 mg/eye, Calculated Concentration in vitreous humor
Where a SMILES comes first, the peptide text is derived from it.
quantity-measured: level at 168 h (µg/mL)
Field format: number, assumed µg/mL, no unit text.

Query :: GET /values?readout=level at 168 h&item= CC[C@H](C)[C@H](NC(=O)[C@H](Cc1ccc(O)cc1)NC(=O)[C@H](CC(N)=O)NC(=O)[C@@H](NC(=O)[C@H](C)NC(=O)CNC(=O)[C@H](CC(C)C)NC(=O)[C@H](Cc1ccc(O)cc1)NC(=O)[C@@H](NC(=O)[C@H](Cc1cnc[nH]1)NC(=O)[C@@H](N)Cc1cnc[nH]1)[C@@H](C)CC)C(C)C)C(=O)N[C@@H](Cc1ccc(O)cc1)C(N)=O [Compound 1] (H-HHIYLGAVNYIY-NH2)
Result :: 84.8

----------
test: in vivo; conditions: male, Dutch Belted, rabbit, 0.1 mg/eye, Mean concentration in retina
Where a SMILES comes first, the peptide text is derived from it.
quantity-measured: tissue level at time at 240 h (ng/g)
Please state the figure in ng/g; there is no need to write the unit.

Query :: State the recorded tissue level at time at 240 h for this entry: CC[C@H](C)[C@H](NC(=O)[C@H](Cc1ccc(O)cc1)NC(=O)[C@H](CC(N)=O)NC(=O)[C@@H](NC(=O)[C@H](C)NC(=O)CNC(=O)[C@H](CC(C)C)NC(=O)[C@H](Cc1ccc(O)cc1)NC(=O)[C@@H](NC(=O)[C@H](Cc1cnc[nH]1)NC(=O)[C@@H](N)Cc1cnc[nH]1)[C@@H](C)CC)C(C)C)C(=O)N[C@@H](Cc1ccc(O)cc1)C(N)=O [Compound 1] (H-HHIYLGAVNYIY-NH2)
Result :: 490

----------
test: in vivo; conditions: male, Dutch Belted, rabbit, 0.05 mg/eye, Mean concentration in retina
Where a SMILES comes first, the peptide text is derived from it.
quantity-measured: tissue level at time at 24 h (ng/g)
Please respond with the number in ng/g and leave the unit unwritten.

Query :: Request the reported tissue level at time at 24 h associated with CC[C@H](C)[C@H](NC(=O)[C@H](Cc1ccc(O)cc1)NC(=O)[C@H](CC(N)=O)NC(=O)[C@@H](NC(=O)[C@H](C)NC(=O)CNC(=O)[C@H](CC(C)C)NC(=O)[C@H](Cc1ccc(O)cc1)NC(=O)[C@@H](NC(=O)[C@H](Cc1cnc[nH]1)NC(=O)[C@@H](N)Cc1cnc[nH]1)[C@@H](C)CC)C(C)C)C(=O)N[C@@H](Cc1ccc(O)cc1)C(N)=O [Compound 1] (H-HHIYLGAVNYIY-NH2)
Result :: 206
